Taken from patent US20100098737A1.

testMethodNotes: binding assay: biotinylated synthetic peptide on streptavidin plate, titrated with biotinylated glycopeptide antibiotic
conditionNotes: synthetic peptides binding to vancomycin; read-out: EC50, binding to glycopeptide antibiotic
Reported values of EC50 for individual entries

[
  {
    "residueSequence": "STCLIDMYGVCHSSCLIDMYGVCH [compound 10]",
    "quantityKind": "EC50",
    "recordedMeasurement": "< 1000 nM"
  },
  {
    "residueSequence": "CLIDMYGVCHNFDGAYDS [compound 1]",
    "quantityKind": "EC50",
    "recordedMeasurement": "< 100 nM"
  },
  {
    "residueSequence": "STCLIDMYGVCH [compound 9]",
    "quantityKind": "EC50",
    "recordedMeasurement": "< 1000 nM"
  }
]

# lookup: EC50 of CLFDIFGVCHSFDGAYDS [compound 2]
< 100 nM

Quick one: EC50 of PCELIDMFGNDHCP [compound 3] ?
< 100 nM
